target: Epidermal growth factor receptor (Homo sapiens, UniProt P00533)
Sequence (P00533 whole entry): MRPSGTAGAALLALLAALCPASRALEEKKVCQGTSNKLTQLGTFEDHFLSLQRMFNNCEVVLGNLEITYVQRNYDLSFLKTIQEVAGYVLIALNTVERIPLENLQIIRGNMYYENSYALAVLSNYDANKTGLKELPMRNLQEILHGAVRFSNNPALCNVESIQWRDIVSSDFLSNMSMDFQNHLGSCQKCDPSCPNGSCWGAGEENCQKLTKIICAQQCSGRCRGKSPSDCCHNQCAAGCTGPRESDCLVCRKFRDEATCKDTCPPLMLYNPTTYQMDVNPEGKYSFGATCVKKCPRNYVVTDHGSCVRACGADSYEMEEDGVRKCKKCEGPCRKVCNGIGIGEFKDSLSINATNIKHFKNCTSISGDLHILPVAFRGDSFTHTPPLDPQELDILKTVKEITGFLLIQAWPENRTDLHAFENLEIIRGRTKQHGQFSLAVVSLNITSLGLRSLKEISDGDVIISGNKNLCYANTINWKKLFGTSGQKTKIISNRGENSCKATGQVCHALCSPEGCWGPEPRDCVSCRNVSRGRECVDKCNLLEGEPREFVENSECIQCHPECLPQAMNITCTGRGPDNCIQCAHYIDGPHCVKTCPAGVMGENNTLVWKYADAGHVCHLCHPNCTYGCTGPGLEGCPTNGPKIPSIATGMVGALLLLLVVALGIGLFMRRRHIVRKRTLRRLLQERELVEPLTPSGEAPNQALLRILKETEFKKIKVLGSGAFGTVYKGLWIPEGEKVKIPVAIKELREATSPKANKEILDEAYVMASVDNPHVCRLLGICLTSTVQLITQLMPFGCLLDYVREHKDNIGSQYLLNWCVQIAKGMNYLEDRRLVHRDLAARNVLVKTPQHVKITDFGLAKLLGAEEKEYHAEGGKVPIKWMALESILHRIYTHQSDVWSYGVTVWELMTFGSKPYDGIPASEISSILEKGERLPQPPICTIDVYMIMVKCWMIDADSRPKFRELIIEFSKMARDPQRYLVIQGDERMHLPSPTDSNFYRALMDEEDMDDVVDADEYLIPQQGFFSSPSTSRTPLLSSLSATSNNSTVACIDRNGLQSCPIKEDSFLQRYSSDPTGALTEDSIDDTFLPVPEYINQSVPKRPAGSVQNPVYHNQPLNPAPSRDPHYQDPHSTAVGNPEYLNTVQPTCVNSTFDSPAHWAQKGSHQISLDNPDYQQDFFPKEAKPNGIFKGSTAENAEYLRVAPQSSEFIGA
Criterion: IC50 strictly under 5 nM. Met: TRUE. Not met: FALSE.

Some entries whose results are on file:
{"GIVEN SMILES": "COc1cccc(OC)c1-c1cc2c(N[C@H](C)c3ccccc3)ncnc2s1", "ASSIGNED CATEGORY": "TRUE"}
{"GIVEN SMILES": "C[C@@H](Nc1ncnc2sc(-c3cccc(C=O)c3)cc12)c1ccccc1", "ASSIGNED CATEGORY": "FALSE"}
{"GIVEN SMILES": "COc1ccc(C(=O)NCCN(C)C)cc1-c1cc2c(N[C@H](C)c3ccccc3)ncnc2s1", "ASSIGNED CATEGORY": "TRUE"}
{"GIVEN SMILES": "COc1ccc(C=O)cc1-c1cc2c(N[C@H](C)c3ccccc3)ncnc2s1", "ASSIGNED CATEGORY": "TRUE"}
{"GIVEN SMILES": "C[C@@H](Nc1ncnc2sc(-c3cccc(C(=O)O)c3)cc12)c1ccccc1", "ASSIGNED CATEGORY": "FALSE"}
{"GIVEN SMILES": "C[C@@H](Nc1ncnc2sc(-c3cccc(C(=O)NCCN(C)C)c3)cc12)c1ccccc1", "ASSIGNED CATEGORY": "TRUE"}

### Prompt Identify whether the molecule `C[C@@H](Nc1ncnc2sc(-c3ccc(CO)cc3F)cc12)c1ccccc1` records IC50 below 5 nM.
### Response FALSE

### Prompt `OC[C@@H](Nc1ncnc2sc(-c3ccccc3)cc12)c1ccccc1` , same question.
### Response FALSE

### Prompt `COc1cc(C(N)=O)ccc1-c1cc2c(N[C@H](CO)c3ccccc3)ncnc2s1` , same question.
### Response TRUE

----------
target: Proto-oncogene tyrosine-protein kinase receptor Ret (Homo sapiens); assay: Inhibition of RET (unknown origin) at 500 nM
READOUT LABEL: inhibition (%)
Numeric only. Scale: %

Recorded results for 4 compounds are shown here.
{"GIVEN SMILES": "CN(C)CCNC(=O)c1ccc(-c2cc3c(N[C@H](CO)c4ccccc4)ncnc3s2)cc1", "ASSAYED TARGET": "Proto-oncogene tyrosine-protein kinase receptor Ret (Homo sapiens)", "inhibition, %": 20}
{"GIVEN SMILES": "COc1cc(CO)ccc1-c1cc2c(N[C@H](CO)c3ccccc3)ncnc2s1", "ASSAYED TARGET": "Proto-oncogene tyrosine-protein kinase receptor Ret (Homo sapiens)", "inhibition, %": 9}
{"GIVEN SMILES": "COc1ccc(C(=O)NCCN(C)C)cc1-c1cc2c(N[C@H](C)c3ccccc3)ncnc2s1", "ASSAYED TARGET": "Proto-oncogene tyrosine-protein kinase receptor Ret (Homo sapiens)", "inhibition, %": 7}
{"GIVEN SMILES": "COc1cc(CO)ccc1-c1cc2c(Nc3ccccc3)ncnc2s1", "ASSAYED TARGET": "Proto-oncogene tyrosine-protein kinase receptor Ret (Homo sapiens)", "inhibition, %": 26}

Let us examine a further case.
### Prompt For the compound shown here, `C[C@@H](Nc1ncnc2sc(-c3ccccc3C(N)=O)cc12)c1ccccc1` , give the reported inhibition.
### Response -5

----------
test system: SW480; assay: Antiproliferative activity against human SW480 cells after 72 hrs by CellTiter-Glo assay; format: functional, cell-based; settings: SW480, 72 h
READOUT LABEL: IC50 (µM)
Numeric only. Scale: µM

### Prompt For the molecule shown here, `COc1cc(CO)ccc1-c1cc2c(N[C@H](CO)c3ccccc3)ncnc2s1` , give the reported IC50.
### Response 19
